Please respond with reported protein stability index for every item in the list.
B1: INTS3 (parent)
chain: DLNSKGKKREFRFHPIKETVVEEP

- Variants of: B1
- assayName: protein stability index of a GFP-peptide fusion (GPS, HEK-293T) (PSI 1-6); higher = more stable;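 further: lentivirally expressed fusions sorted by FACS into six bins by GFP to DsRed ratio, PSI derived from sequencing read proportions per bin multiplied by bin number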
- experimentalConditions: c terminus: a fixed tail appended
Answers are plain numbers.

// input: 4 variants below; output: protein stability index for each
1. K5Q
2. E23G
3. E22Q
4. E23R

2.44
2.13
1.64
2.04
